# test: Metabolic stability test in plasma
# Format: in vitro ADME, human
# condition-info: unchanged form after 60 minutes at 37°C in human plasma, LC/MS; read-out: Remaining rate in human plasma (%/60min)
parameter-measured: remaining at 1 h (%)
Entry rule: numbers only, all in %.

These recorded examples may help you get a feel for the data.
Input line: Reported remaining at 1 h for CN(C)C(=O)c1cc(CCCC(=O)Oc2ccc(C(=O)OCc3ccccc3)cc2)ccc1NC(=O)c1ccccc1-c1ccc(C(F)(F)F)cc1 : what is it?
Output line: 4

Input line: Reported remaining at 1 h for CC(=O)NCCOC(=O)c1ccc(OC(=O)CCCc2ccc(NC(=O)c3ccccc3-c3ccc(C(F)(F)F)cc3)c(C(=O)N(C)C)c2)cc1 : what is it?
Output line: 2

---
Input line: Reported remaining at 1 h for COC(=O)c1cc(C)c(OC(=O)CCCc2ccc(NC(=O)c3ccc(C)nc3-c3ccc(C(F)(F)F)cc3)c(C(=O)N(C)C)c2)c(Cl)c1 : what is it?
Output line: 0

Input line: Reported remaining at 1 h for COC(=O)c1ccc(OC(=O)CCCc2ccc(NC(=O)c3ccccc3-c3ccc(C(F)(F)F)cc3)c(C(=O)N3CCCC3)c2)cc1 : what is it?
Output line: 0

Input line: Reported remaining at 1 h for COC(=O)c1ccc(OC(=O)CCCc2ccc(NC(=O)c3ccccc3-c3ccc(C(F)(F)F)cc3)c(C(=O)N3CCOCC3)c2)cc1 : what is it?
Output line: 0

Input line: Reported remaining at 1 h for COC(=O)c1ccc(OC(=O)CCCc2ccc(NC(=O)c3ccccc3-c3ccc(C(F)(F)F)cc3)c(C(=O)N(C)C)c2)c(Cl)c1 : what is it?
Output line: 0

Input line: Reported remaining at 1 h for COC(=O)c1cc(OC)c(OC(=O)CCCc2ccc(NC(=O)c3ccc(C)nc3-c3ccc(C(F)(F)F)cc3)c(C(=O)N(C)C)c2)c(OC)c1 : what is it?
Output line: 0

Input line: Reported remaining at 1 h for CN(C)C(=O)c1cc(CCCC(=O)Oc2ccc(C(=O)OCc3ccsc3)cc2)ccc1NC(=O)c1ccccc1-c1ccc(C(F)(F)F)cc1 : what is it?
Output line: 0
